# Test system: 699152-130-R-J1-PDC complex spheroid growth;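 also: compound exposure lasted 7 days after spheroids had grown for 3 days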
# test.name: Anticancer human tumor 699152-130-R-J1-PDC patient-derived pancreatic carcinoma cell line growth inhibition [AhR]
# reported.conditions: second compound 0.1 µM; first compound 3 µM; hits give low values
# From the text: Multicellular complex tumor spheroid response to aryl hydrocarbon receptor antagonists in combination with a variety of drugs and investigational agents in selected tumor cell lines […] Compounds. […] If the clinical Cmax for an agent had not been determined, the highest concentration tested was 10 microM (Table 1). […]
Reported viability, T/C by item:
Respond with the bare value in %.

{"columns": ["compound", "viability, T/C (%)"],
 "data": [
  ["CCN(c1cc(-c2ccc(CN3CCOCC3)cc2)cc(C(=O)NCc2c(C)cc(C)[nH]c2=O)c1C)C1CCOCC1 + Cc1ccccc1N=Nc1ccc(NC(=O)c2ccnn2C)c(C)c1", 104],
  ["O=C(C=Cn1cnc(-c2cc(C(F)(F)F)cc(C(F)(F)F)c2)n1)NNc1cnccn1 + CC(CO)NC(=O)c1cc(-c2ccc(Cl)cc2)nn(-c2cnn(C)c2)c1=O", 83.2],
  ["CCN(c1cc(-c2ccc(CN3CCOCC3)cc2)cc(C(=O)NCc2c(C)cc(C)[nH]c2=O)c1C)C1CCOCC1 + Cc1cncc(-c2nc(NCCc3c[nH]c4ccccc34)c3ncn(C(C)C)c3n2)c1", 120],
  ["O=C(C=Cn1cnc(-c2cc(C(F)(F)F)cc(C(F)(F)F)c2)n1)NNc1cnccn1 + Cc1cncc(-c2nc(NCCc3c[nH]c4ccccc34)c3ncn(C(C)C)c3n2)c1", 67.8]
]}

Request: Value lookup for viability, T/C; key = O=C(C=Cn1cnc(-c2cc(C(F)(F)F)cc(C(F)(F)F)c2)n1)NNc1cnccn1 + Cc1ccccc1N=Nc1ccc(NC(=O)c2ccnn2C)c(C)c1
Response: 57.5

Request: What value of viability, T/C has been recorded for this entry: CCN(c1cc(-c2ccc(CN3CCOCC3)cc2)cc(C(=O)NCc2c(C)cc(C)[nH]c2=O)c1C)C1CCOCC1 + CC(CO)NC(=O)c1cc(-c2ccc(Cl)cc2)nn(-c2cnn(C)c2)c1=O
Response: 102
